- TARGET OR TEST SYSTEM: α4β4-nAChR (Rattus norvegicus, UniProt P09483+P12392)
- Construct: expressed in transfected cells
- Sequence (P09483 31-630): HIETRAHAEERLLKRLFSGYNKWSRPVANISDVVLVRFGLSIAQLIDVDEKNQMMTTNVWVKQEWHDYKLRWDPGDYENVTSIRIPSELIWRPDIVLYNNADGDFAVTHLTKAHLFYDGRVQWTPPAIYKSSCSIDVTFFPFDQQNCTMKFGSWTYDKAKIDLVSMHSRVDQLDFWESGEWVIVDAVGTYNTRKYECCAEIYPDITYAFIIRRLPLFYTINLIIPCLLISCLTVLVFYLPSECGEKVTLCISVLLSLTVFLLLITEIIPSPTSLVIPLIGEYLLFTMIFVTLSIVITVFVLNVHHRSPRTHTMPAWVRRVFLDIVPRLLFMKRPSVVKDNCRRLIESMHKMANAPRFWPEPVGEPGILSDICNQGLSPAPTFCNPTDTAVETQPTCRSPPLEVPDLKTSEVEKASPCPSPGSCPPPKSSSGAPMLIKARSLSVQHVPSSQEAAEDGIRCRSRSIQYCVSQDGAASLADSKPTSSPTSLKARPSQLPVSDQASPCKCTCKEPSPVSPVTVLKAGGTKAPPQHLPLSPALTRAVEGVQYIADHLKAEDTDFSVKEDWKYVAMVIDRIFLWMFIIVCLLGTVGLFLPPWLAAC
- Sequence (P12392 21-495): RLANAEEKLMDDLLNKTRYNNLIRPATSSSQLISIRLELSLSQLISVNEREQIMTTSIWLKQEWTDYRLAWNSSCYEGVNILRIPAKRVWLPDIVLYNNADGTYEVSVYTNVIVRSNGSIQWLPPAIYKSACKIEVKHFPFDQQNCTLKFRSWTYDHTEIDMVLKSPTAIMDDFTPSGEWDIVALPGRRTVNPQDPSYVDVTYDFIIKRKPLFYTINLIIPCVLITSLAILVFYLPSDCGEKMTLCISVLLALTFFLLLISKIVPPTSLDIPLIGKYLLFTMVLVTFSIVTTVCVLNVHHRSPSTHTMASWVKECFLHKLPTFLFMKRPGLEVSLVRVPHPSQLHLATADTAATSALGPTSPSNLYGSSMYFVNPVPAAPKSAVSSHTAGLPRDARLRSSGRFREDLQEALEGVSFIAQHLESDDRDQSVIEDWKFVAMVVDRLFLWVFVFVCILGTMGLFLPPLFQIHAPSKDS
- EXPERIMENTAL DETAILS: Heteromeric nAChR binding assay, transfected HEK293 membranes, [3H]epibatidine
EXPERIMENTAL ENDPOINT: Ki

MOL SMILES: O=S1(=O)c2ccccc2-c2ccc(N3CCN4CCC3CC4)c(F)c21
EXPERIMENTAL ENDPOINT: Ki
EXPERIMENTAL VALUE: 1000 nM
--
MOL SMILES: O=S1(=O)c2ccc(I)cc2-c2ccc(N3CCN4CCC3CC4)cc21
EXPERIMENTAL ENDPOINT: Ki
EXPERIMENTAL VALUE: 5000 nM

----------
- Format: binding
- CONDITIONS: read-out: human Ki α7-nAChR
pKi: −log10 of the molar value.
EXPERIMENTAL ENDPOINT: pKi

COMPOUND: O=S1(=O)c2cc(N3CCN4CCC3CC4)ccc2-c2cccc([18F])c21 [[^18F]7a]
EXPERIMENTAL ENDPOINT: pKi
EXPERIMENTAL VALUE: 9.52

----------
A collection of compounds and their measured selectivity α7/α4β2
- TARGET OR TEST SYSTEM: α4β2-nAChR (Rattus norvegicus, UniProt P09483+P12390)
- Sequence (P09483 31-630, one chain of several): as the sequence (P09483 31-630) above
- EXPERIMENTAL DETAILS: Heteromeric nAChR binding assay, transfected HEK293 membranes, [3H]epibatidine

COMPOUND: O=S1(=O)c2ccccc2-c2ccc(N3CCN4CCC3CC4)c(F)c21 [Compound 7d]
selectivity α7/α4β2: 66
//
COMPOUND: O=S1(=O)c2cc(N3CCN4CCC3CC4)ccc2-c2cccc(F)c21 [Compound 7a]
selectivity α7/α4β2: 1370
//
COMPOUND: O=S1(=O)c2ccc(I)cc2-c2ccc(N3CCN4CCC3CC4)cc21 [Compound 15]
selectivity α7/α4β2: 63
//
COMPOUND: O=S1(=O)c2ccc(F)cc2-c2ccc(N3CCN4CCC3CC4)cc21 [Compound 7c]
selectivity α7/α4β2: 663
//
COMPOUND: O=S1(=O)c2ccccc2-c2c(N3CCN4CCC3CC4)ccc(F)c21 [Compound 7e]
selectivity α7/α4β2: 210

----------
- TARGET OR TEST SYSTEM: α3β2-nAChR (Rattus norvegicus, UniProt P04757+P12390)
- Sequence (P04757 26-499): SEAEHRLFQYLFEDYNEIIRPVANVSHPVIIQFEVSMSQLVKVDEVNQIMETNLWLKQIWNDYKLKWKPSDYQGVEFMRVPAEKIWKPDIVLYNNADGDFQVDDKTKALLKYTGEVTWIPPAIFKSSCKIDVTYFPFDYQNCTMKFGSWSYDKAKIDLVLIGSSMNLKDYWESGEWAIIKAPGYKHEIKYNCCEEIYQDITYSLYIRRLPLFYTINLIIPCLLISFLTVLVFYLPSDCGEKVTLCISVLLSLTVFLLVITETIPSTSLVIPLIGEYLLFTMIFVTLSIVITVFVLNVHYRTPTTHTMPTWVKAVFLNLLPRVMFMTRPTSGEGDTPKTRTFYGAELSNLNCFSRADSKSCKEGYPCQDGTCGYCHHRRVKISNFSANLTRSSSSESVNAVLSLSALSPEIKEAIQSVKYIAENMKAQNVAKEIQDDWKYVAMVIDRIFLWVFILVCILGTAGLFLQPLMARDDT
- Sequence (P12390 25-500): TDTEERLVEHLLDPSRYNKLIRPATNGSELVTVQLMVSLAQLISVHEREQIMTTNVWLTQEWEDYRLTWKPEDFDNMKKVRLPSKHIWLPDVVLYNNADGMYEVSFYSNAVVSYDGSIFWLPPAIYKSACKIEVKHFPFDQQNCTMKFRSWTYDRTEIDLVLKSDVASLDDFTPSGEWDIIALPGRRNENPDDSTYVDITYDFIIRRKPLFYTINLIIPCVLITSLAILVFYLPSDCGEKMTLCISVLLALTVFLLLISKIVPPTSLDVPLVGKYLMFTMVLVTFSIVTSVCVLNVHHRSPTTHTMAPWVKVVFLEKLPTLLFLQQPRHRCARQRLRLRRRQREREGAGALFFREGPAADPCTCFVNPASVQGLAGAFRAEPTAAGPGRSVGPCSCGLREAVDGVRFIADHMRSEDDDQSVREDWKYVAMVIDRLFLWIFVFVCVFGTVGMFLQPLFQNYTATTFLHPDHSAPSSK
- EXPERIMENTAL DETAILS: Heteromeric nAChR binding assay, transfected HEK293 membranes, [3H]epibatidine
- CONDITIONS: stably transfected HEK293 cells, [3H]epibatidine (0.5 nM)
pKi: −log10 of the molar value.

MOL SMILES: O=S1(=O)c2cc(N3CCN4CCC3CC4)ccc2-c2cccc(F)c21
pKi: 6.00

MOL SMILES: O=S1(=O)c2ccc(F)cc2-c2ccc(N3CCN4CCC3CC4)cc21
pKi: 5.70

MOL SMILES: O=S1(=O)c2ccccc2-c2c(N3CCN4CCC3CC4)ccc(F)c21
pKi: 5.70

----------
Ki overview
- TARGET OR TEST SYSTEM: α3β2-nAChR (Rattus norvegicus, UniProt P04757+P12390)
- EXPERIMENTAL DETAILS: Heteromeric nAChR binding assay, transfected HEK293 membranes, [3H]epibatidine
EXPERIMENTAL ENDPOINT: Ki (nM)

MOL SMILES: O=S1(=O)c2ccc(I)cc2-c2ccc(N3CCN4CCC3CC4)cc21
EXPERIMENTAL VALUE: 1000
--
MOL SMILES: O=S1(=O)c2ccccc2-c2ccc(N3CCN4CCC3CC4)c(F)c21
EXPERIMENTAL VALUE: 678
